- Target Of Assay: human V1b receptor (Homo sapiens)
- Construct: expressed in transfected cells; host or cells: CHO cells
- Sequence (P47901 whole entry): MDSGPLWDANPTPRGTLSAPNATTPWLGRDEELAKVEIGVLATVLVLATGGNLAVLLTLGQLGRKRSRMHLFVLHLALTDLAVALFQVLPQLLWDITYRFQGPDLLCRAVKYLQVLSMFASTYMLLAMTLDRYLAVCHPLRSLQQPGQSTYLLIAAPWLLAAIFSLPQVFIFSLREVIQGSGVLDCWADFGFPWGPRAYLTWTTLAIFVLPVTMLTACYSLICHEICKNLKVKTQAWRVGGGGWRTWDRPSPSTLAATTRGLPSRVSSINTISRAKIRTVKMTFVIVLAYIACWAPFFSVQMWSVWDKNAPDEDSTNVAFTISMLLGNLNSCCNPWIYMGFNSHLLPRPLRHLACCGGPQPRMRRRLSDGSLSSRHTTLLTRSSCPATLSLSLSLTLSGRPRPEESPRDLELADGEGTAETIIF
- Protocol Description: V1b receptor binding assay ([3H](Arg8)-vasopressin, crude membranes of CHO cells)
- Assay Setup: 0.1 μmol/L test drug, V1b receptor binding assay; read-out: Rate of inhibition (V1b: % of inhibition)
Property Measured: inhibition at 0.1 µM (%)
Enter your answer as a number in %; do not include the unit.

The cases that follow already have their inhibition at 0.1 µM on record.
[
  {
    "Compound": "COc1ccc(S(=O)(=O)N2C(=O)C(c3cccc4c3OCC4)(N3C[C@H](O)C[C@H]3C(=O)N(C)C)c3cc(Cl)ccc32)c(OC(F)(F)F)c1 (single isomer, unassigned)",
    "Target Of Assay": "human V1b receptor (Homo sapiens)",
    "inhibition at 0.1 µM, %": 104
  },
  {
    "Compound": "COc1ccc(S(=O)(=O)N2C(=O)C(c3cc(C)ccc3OC)(N3C[C@H](O)C[C@H]3C(=O)N(CCO)CCO)c3cc(Cl)ccc32)c(OC(F)(F)F)c1 (some centres unmarked)",
    "Target Of Assay": "human V1b receptor (Homo sapiens)",
    "inhibition at 0.1 µM, %": 78
  },
  {
    "Compound": "COc1ccc(S(=O)(=O)N2C(=O)C(c3cc(C)ccc3OC)(N3C[C@H](OCC(=O)O)C[C@H]3C(=O)N(C)C)c3cc(Cl)ccc32)c(OC(F)(F)F)c1 (some centres unmarked)",
    "Target Of Assay": "human V1b receptor (Homo sapiens)",
    "inhibition at 0.1 µM, %": 85
  },
  {
    "Compound": "CCN(C)CCCO[C@@H]1C[C@@H](C(=O)N(C)C)N(C2(c3cc(C)ccc3OC)C(=O)N(S(=O)(=O)c3ccc(OC)cc3OC(F)(F)F)c3ccc(Cl)cc32)C1 (some centres unmarked)",
    "Target Of Assay": "human V1b receptor (Homo sapiens)",
    "inhibition at 0.1 µM, %": 107
  }
]

# context switch: different compound, same inhibition at 0.1 µM
Query: For the compound COc1ccc(S(=O)(=O)N2C(=O)C(c3cc(C)ccc3OC)(N3C[C@H](O)C[C@H]3C(=O)N(C)C)c3cc(Cl)cnc32)c(OC(F)(F)F)c1 (single isomer, unassigned) , report inhibition at 0.1 µM.
Result: 67
